assay_target: Cyclin-dependent kinase 3 (Homo sapiens, UniProt Q00526)
Sequence (Q00526 whole entry): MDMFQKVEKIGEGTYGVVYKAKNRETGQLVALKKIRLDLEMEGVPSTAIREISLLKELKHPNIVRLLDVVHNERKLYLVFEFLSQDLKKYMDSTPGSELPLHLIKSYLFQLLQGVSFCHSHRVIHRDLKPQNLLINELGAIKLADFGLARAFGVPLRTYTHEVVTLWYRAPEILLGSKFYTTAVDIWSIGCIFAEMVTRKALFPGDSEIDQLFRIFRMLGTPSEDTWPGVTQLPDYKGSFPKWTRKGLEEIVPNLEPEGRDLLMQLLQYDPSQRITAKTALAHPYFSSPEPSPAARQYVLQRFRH
protocol_summary: Inhibition of recombinant CDK3 (unknown origin)

>  <compound>
CN(C)C/C=C/C(=O)Nc1ccc(C(=O)N2CCCC(Nc3ncc(Cl)c(-c4c[nH]c5ccccc45)n3)C2)cc1 (stereo unspecified)

>  <IC50>
69 nM

$$$$

###

assay_target: SRSF protein kinase 1 (Homo sapiens)
Sequence (Q96SB4 whole entry): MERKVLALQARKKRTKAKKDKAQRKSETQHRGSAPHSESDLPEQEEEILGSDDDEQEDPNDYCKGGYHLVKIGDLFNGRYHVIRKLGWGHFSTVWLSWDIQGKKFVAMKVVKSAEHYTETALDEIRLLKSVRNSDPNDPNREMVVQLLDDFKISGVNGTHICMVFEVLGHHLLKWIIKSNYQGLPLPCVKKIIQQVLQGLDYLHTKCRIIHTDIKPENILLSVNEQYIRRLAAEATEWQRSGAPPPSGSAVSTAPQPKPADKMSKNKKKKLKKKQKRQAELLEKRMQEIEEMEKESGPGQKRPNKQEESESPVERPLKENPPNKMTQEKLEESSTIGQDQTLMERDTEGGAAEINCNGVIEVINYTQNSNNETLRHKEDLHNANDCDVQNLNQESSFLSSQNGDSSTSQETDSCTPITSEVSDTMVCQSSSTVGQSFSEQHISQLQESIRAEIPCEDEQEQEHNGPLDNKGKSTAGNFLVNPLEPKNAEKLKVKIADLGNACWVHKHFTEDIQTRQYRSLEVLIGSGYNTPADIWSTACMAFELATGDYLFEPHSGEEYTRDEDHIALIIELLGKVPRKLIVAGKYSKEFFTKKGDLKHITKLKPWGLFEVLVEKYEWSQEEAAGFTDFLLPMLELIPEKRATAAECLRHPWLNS

>  <compound>
CCc1cc2c(cc1-c1cc[nH]n1)C(C)(C)C1Cc3cc(C#N)ccc3C1C2=O (stereo unspecified)

>  <IC50>
1.15 nM

$$$$

###

assay_target: Mast/stem cell growth factor receptor Kit (Homo sapiens, UniProt P10721)
Sequence (P10721 whole entry): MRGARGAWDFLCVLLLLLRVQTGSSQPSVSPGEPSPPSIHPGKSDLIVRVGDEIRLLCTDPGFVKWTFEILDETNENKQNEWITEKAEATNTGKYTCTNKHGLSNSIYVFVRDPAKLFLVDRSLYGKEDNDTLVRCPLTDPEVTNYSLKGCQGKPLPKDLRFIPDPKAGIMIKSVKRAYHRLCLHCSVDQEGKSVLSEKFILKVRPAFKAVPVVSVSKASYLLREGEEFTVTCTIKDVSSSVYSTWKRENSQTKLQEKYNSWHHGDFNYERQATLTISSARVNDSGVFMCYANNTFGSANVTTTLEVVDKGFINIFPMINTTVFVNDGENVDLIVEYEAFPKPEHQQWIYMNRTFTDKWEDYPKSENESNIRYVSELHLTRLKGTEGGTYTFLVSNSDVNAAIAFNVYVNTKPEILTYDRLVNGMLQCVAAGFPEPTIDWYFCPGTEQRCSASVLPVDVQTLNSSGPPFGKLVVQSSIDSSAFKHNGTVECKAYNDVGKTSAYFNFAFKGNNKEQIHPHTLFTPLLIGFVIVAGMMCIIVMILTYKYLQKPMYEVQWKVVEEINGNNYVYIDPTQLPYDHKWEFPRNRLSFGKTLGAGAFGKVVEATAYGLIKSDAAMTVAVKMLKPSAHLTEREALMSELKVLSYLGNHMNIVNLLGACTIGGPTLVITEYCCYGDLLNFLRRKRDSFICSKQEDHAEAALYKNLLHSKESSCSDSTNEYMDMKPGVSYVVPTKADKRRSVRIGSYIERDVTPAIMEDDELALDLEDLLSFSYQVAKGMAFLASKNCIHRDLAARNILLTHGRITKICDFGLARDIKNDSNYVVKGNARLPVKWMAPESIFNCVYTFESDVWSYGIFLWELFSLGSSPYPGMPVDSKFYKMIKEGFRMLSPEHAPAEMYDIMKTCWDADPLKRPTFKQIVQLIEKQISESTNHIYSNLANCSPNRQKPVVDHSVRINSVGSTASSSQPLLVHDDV
reported_endpoint: IC50 (µM)

>  <chem_smiles>
CC#CC1=Nc2cc(NC(=O)Cc3ncc(Oc4ccnc5cc(OC)ccc45)cc3OC)ccc2C(C)(C)O1

>  <assay_target>
Mast/stem cell growth factor receptor Kit (Homo sapiens, UniProt P10721)

>  <numeric_value>
2.08

$$$$

###

assay_target: Neutrophil elastase (Homo sapiens)
Sequence (P08246 whole entry): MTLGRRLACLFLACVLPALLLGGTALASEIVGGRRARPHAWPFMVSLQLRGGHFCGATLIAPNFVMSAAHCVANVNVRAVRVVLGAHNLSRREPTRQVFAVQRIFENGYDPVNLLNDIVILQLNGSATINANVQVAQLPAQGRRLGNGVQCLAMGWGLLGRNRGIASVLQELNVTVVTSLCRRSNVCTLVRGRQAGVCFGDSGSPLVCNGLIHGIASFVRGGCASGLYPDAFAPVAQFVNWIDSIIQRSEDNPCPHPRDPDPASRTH
protocol_summary: Inhibition of human neutrophil elastase
pIC50: −log10 of the molar value.

>  <chem_smiles>
O=S(=O)(F)c1ccccc1S(=O)(=O)F

>  <assay_target>
Neutrophil elastase (Homo sapiens)

>  <pIC50>
5.48

$$$$

###

Lab note: IC50 readings collected with Cathepsin G (Homo sapiens, UniProt P08311) for the following compounds.
Sequence (P08311 whole entry): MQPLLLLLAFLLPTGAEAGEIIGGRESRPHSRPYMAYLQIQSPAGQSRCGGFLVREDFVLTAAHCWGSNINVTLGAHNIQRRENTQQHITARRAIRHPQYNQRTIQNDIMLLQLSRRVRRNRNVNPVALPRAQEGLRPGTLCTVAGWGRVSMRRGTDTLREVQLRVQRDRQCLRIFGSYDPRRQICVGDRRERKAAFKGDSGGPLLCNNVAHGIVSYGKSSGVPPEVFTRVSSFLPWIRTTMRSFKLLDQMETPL

>  <chem_smiles>
O=S(=O)(F)c1ccccc1S(=O)(=O)F

>  <inequality_sign>
=

>  <IC50, nM>
190

$$$$
>  <chem_smiles>
O=S(=O)(F)Oc1ccccc1S(=O)(=O)F

>  <inequality_sign>
>

>  <IC50, nM>
200

$$$$

Origin of measurements: ChEMBL document CHEMBL6109048
